# Test system: production of PGF2α in A549 cells
# test-description: Inhibition of PGF2α production in IL-1β-stimulated A549 cells (EIA), selectivity
# Type: cell-based
# conditions-used: Homo sapiens, IL-1β-stimulated, read-out: pIC50 PGF2α (converted)
property: IC50

Below, 3 molecules whose answers are already recorded.
molecule | property | assay-value
CCn1c(-c2cccc(C)c2)cc2cc(NC(=O)c3ccccc3Cl)ccc21 [Compound 19] | IC50 | 100 µM
CCn1c(-c2ccccc2)cc2cc(NC(=O)c3ccccc3C(F)(F)F)ccc21 [Compound 9] | IC50 | 50.1 µM
CCn1c(-c2ccc(C)cc2)cc2cc(NC(=O)c3ccccc3Cl)ccc21 [Compound 20] | IC50 | > 100 µM

I'd like to know its IC50. The molecule in question is CCn1c(-c2ccccc2)cc2cc(NC(=O)c3c(Cl)cccc3Cl)ccc21 [Compound 10]
> 100 µM

Then COc1ccc2c(c1)c(CC(=O)O)c(C)n2C(=O)c1ccc(Cl)cc1 [Indomethacin, indomethacin, reference compound] ?
0.00251 µM
